Where do these numbers come from? They come from patent US8247211B2.

Listed here: items and their measured MIC Enterococccus faecalis (GC 3059).
System: Enterococcus sp.
Test: In vitro antibacterial evaluation: minimum inhibitory concentration (MIC), broth dilution method
Type: cell-based
Conditions: broth dilution, 5×10^5 CFU/mL, 18 hours at 35° C.
readout_kind: MIC Enterococccus faecalis (GC 3059)

compound	target	endpoint_result
CC(c1ccccc1)C1NC(=O)CNC(=O)C(CO)NC(=O)C(C(O)C2CNC(=N)N2C2OC(CO)C(O)C(O)C2O)NC(=O)C(C(O)C2CNC(=N)N2)NC(=O)C(Cc2ccc(OC3OC(CO)C(OC4OC5COC(c6cccc(O)c6)OC5C(O)C4O)C(O)C3O)cc2)NC1=O (stereo not drawn)	Enterococcus sp.	>64 µg/mL
CC(c1ccccc1)C1NC(=O)CNC(=O)C(CO)NC(=O)C(C(O)C2CNC(=N)N2C2OC(CO)C(O)C(O)C2O)NC(=O)C(C(O)C2CNC(=N)N2)NC(=O)C(Cc2ccc(OC3OC(CO)C(OC4OC5COC(Cc6ccc(Br)cc6)OC5C(O)C4O)C(O)C3O)cc2)NC1=O (stereo not drawn)	Enterococcus sp.	1 to 2 µg/mL
CC(c1ccccc1)C1NC(=O)CNC(=O)C(CO)NC(=O)C(C(O)C2CNC(=N)N2C2OC(CO)C(O)C(O)C2O)NC(=O)C(C(O)C2CNC(=N)N2)NC(=O)C(Cc2ccc(OC3OC(CO)C(OC4OC(CO)C(O)C5OC(c6ccccc6)OC45)C(O)C3O)cc2)NC1=O (single isomer, unassigned) [Example 104a]	Enterococcus sp.	>0.5 µg/mL

----------
Listed here: items and their measured MIC Staphylococcus aureus (ATCC 29213).
Tested on: Staphylococcus sp.
Assay: In vitro antibacterial evaluation: minimum inhibitory concentration (MIC), broth dilution method
Assay type: cell-based
Details: strain ATCC 29213

molecule	MIC Staphylococcus aureus (ATCC 29213)
N=C1NCC(C(O)C2NC(=O)C(CC3CCC(OC4OC(CO)C(OC5OC6COC7(OC6C(O)C5O)C5CC6CC(C5)CC7C6)C(O)C4O)CC3)NC(=O)C(CC3CCCCC3)NC(=O)CNC(=O)C(CO)NC(=O)C(C(O)C3CNC(=N)N3C3OC(CO)C(O)C(O)C3O)NC2=O)N1 (stereo not drawn) [Example 222]	>64 µg/mL
COc1cccc(C2OCC3OC(OC4C(CO)OC(Oc5ccc(CC6NC(=O)C(C(C)c7ccccc7)NC(=O)CNC(=O)C(CO)NC(=O)C(C(O)C7CNC(=N)N7C7OC(CO)C(O)C(O)C7O)NC(=O)C(C(O)C7CNC(=N)N7)NC6=O)cc5)C(O)C4O)C(O)C(O)C3O2)c1 (stereo not drawn) [Example 137]	1 to 2 µg/mL
CC(C)=CCCC(C)=CCCC(C)=CCOc1cccc(C2OCC3OC(OC4C(CO)OC(Oc5ccc(CC6NC(=O)C(C(C)c7ccccc7)NC(=O)CNC(=O)C(CO)NC(=O)C(C(O)C7CNC(=N)N7C7OC(CO)C(O)C(O)C7O)NC(=O)C(C(O)C7CNC(=N)N7)NC6=O)cc5)C(O)C4O)C(O)C(O)C3O2)c1 (stereo not drawn) [Example 185]	>64 µg/mL

----------
Test system: Staphylococcus sp.
Assay: In vitro antibacterial evaluation: minimum inhibitory concentration (MIC), broth dilution method
Type: cell-based
Conditions: strain GC 4551; broth dilution, 18 hours at 35° C.
From the text: […]
readout_kind: MIC Coagulase Negative Staphylococcus (GC 4551)

compound	target	endpoint_result
CC(c1ccccc1)C1NC(=O)CNC(=O)C(CO)NC(=O)C(C(O)C2CNC(=N)N2C2OC(CO)C(O)C(O)C2O)NC(=O)C(C(O)C2CNC(=NC(=O)C(C)(C)C)N2)NC(=O)C(Cc2ccc(OC3OC(CO)C(OC4OC(CO)C(O)C(O)C4O)C(O)C3O)cc2)NC1=O (stereo not drawn) [Example 155]	Staphylococcus sp.	<0.5 to 1 µg/mL
COc1cccc(C2OCC3OC(OC4C(CO)OC(Oc5ccc(CC6NC(=O)C(C(C)c7ccccc7)NC(=O)CNC(=O)C(CO)NC(=O)C(C(O)C7CNC(=N)N7C7OC(CO)C(O)C(O)C7O)NC(=O)C(C(O)C7CNC(=N)N7)NC6=O)cc5)C(O)C4O)C(O)C(O)C3O2)c1 (stereo not drawn) [Example 137]	Staphylococcus sp.	1 to 2 µg/mL
CC(c1ccccc1)C1NC(=O)CNC(=O)C(CO)NC(=O)C(C(O)C2CNC(=N)N2C2OC(CO)C(O)C(O)C2O)NC(=O)C(C(O)C2CNC(=N)N2)NC(=O)C(Cc2ccc(OC3OC(CO)C(OC4OC5COC(Cc6ccccc6)OC5C(O)C4O)C(O)C3O)cc2)NC1=O (stereo not drawn) [Example 102]	Staphylococcus sp.	1 to 2 µg/mL

----------
Tested on: Streptococcus sp.
Experiment: In vitro antibacterial evaluation: minimum inhibitory concentration (MIC), broth dilution method
Format: cell-based
Settings: broth dilution, 5×10^5 CFU/mL, 18 hours at 35° C.

compound	target	MIC Streptococcus pneumoniae (GC 1894)
CC(c1ccccc1)C1NC(=O)CNC(=O)C(CO)NC(=O)C(C(O)C2CNC(=N)N2C2OC(CO)C(O)C(O)C2O)NC(=O)C(C(O)C2CNC(=N)N2)NC(=O)C(Cc2ccc(OC3OC(CO)C(OC4OC5COC(C6CC=CCC6)OC5C(O)C4O)C(O)C3O)cc2)NC1=O (stereo not drawn)	Streptococcus sp.	<0.06 µg/mL
Cc1cccc(C2OCC3OC(OC4C(CO)OC(Oc5ccc(CC6NC(=O)C(C(C)c7ccccc7)NC(=O)CNC(=O)C(CO)NC(=O)C(C(O)C7CNC(=N)N7C7OC(CO)C(O)C(O)C7O)NC(=O)C(C(O)C7CNC(=N)N7)NC6=O)cc5)C(O)C4O)C(O)C(O)C3O2)c1 (stereo not drawn)	Streptococcus sp.	<0.06 µg/mL
N=C1NCC(C(O)C2NC(=O)C(Cc3ccc(OC4OC(CO)C(OC5OC(CO)C(O)C6OC7(OC56)C5CC6CC(C5)CC7C6)C(O)C4O)cc3)NC(=O)C(CC3CCCCC3)NC(=O)CNC(=O)C(CO)NC(=O)C(C(O)C3CNC(=N)N3C3OC(CO)C(O)C(O)C3O)NC2=O)N1 (stereo not drawn) [Example 106a]	Streptococcus sp.	<0.06 µg/mL

----------
Tested on: Enterococcus sp.
Test: In vitro antibacterial evaluation: minimum inhibitory concentration (MIC), broth dilution method
Assay type: cell-based
Conditions: Enterococcus faecalis (GC 3059); 18 hours at 35° C.
Excerpt: […]
Numbered stars: 1 amine (or outer) side, 2 acyl side, 3 side chain; on linkers, the order of the positions; unused ones are H or OH. Square brackets hold non-standard residues; d marks the D form. Peptide text beside a SMILES is read from it. ξ: configuration not given here. X3 = CC1(C)OCC2OC(N3C(=N)NCC3C(O)C(N[*:1])C(=O)[*:2])C3OC(C)(C)OC3C2O1; ξEnduracididine(βξ-OH,4'ξ) = N=C1NCC(C(O)C(N)C(=O)O)N1; ξPhe(βξ-Me) = CC(c1ccccc1)C(N)C(=O)O
Listed here: items and their measured MIC Enterococcus faecalis (GC 3059).

compound	target	MIC Enterococcus faecalis (GC 3059)
COc1ccc2cc(COC3C(CO)OC(OC4C(CO)OC(Oc5ccc(CC6NC(=O)C(C(C)c7ccccc7)NC(=O)CNC(=O)C(CO)NC(=O)C(C(O)C7CNC(=N)N7C7OC(CO)C(O)C(O)C7O)NC(=O)C(C(O)C7CNC(=N)N7)NC6=O)cc5)C(O)C4O)C(O)C3O)ccc2c1 (stereo not drawn) [Example 230a]	Enterococcus sp.	2 to 4 µg/mL
CC(c1ccccc1)C1NC(=O)CNC(=O)C(CO)NC(=O)C(C(O)C2CNC(=N)N2C2OC(CO)C(O)C(O)C2O)NC(=O)C(C(O)C2CNC(=N)N2)NC(=O)C(Cc2ccc(OC3OC(CO)C(OC4OC(COCC=Cc5ccc(N(C)C)cc5)C(O)C(O)C4O)C(O)C3O)cc2)NC1=O (stereo not drawn) [Example 243]	Enterococcus sp.	>64 µg/mL
CC(c1ccccc1)C1NC(=O)CNC(=O)C(CO)NC(=O)C(C(O)C2CNC(=N)N2C2OC3COC(C)(C)OC3C3OC(C)(C)OC32)NC(=O)C(C(O)C2CNC(=N)N2)NC(=O)C(Cc2ccc(O)cc2)NC1=O (stereo not drawn) [Example 247] (cyclo(G[ξPhe(βξ-Me)]Y[ξEnduracididine(βξ-OH,4'ξ)][X3]S); configuration not given here)	Enterococcus sp.	>64 µg/mL

----------
Listed here: items and their measured MIC Staphylococcus aureus (GC 4544).
System: Staphylococcus sp.
Experiment: In vitro antibacterial evaluation: minimum inhibitory concentration (MIC), broth dilution method
Format: cell-based
Settings: Staphylococcus aureus (GC 4544); 18 hours at 35° C.

molecule	MIC Staphylococcus aureus (GC 4544)
CCCCCNC(=O)OC1C(CO)OC(OC2C(CO)OC(Oc3ccc(CC4NC(=O)C(C(C)c5ccccc5)NC(=O)CNC(=O)C(CO)NC(=O)C(C(O)C5CNC(=N)N5C5OC(CO)C(O)C(O)C5O)NC(=O)C(C(O)C5CNC(=N)N5)NC4=O)cc3)C(O)C2O)C(O)C1O (stereo not shown)	>64 µg/mL
CC(c1ccc(F)cc1)C1NC(=O)CNC(=O)C(CO)NC(=O)C(C(O)C2CNC(=N)N2C2OC(CO)C(O)C(O)C2O)NC(=O)C(C(O)C2CNC(=N)N2)NC(=O)C(Cc2ccc(OC3OC(CO)C(OC4OC(CO)C(O)C(O)C4O)C(O)C3O)cc2)NC1=O (stereo not shown) [Example 261a]	>64 µg/mL
COc1ccc2cc(COC3C(CO)OC(OC4C(CO)OC(Oc5ccc(CC6NC(=O)C(C(C)c7ccccc7)NC(=O)CNC(=O)C(CO)NC(=O)C(C(O)C7CNC(=N)N7C7OC(CO)C(O)C(O)C7O)NC(=O)C(C(O)C7CNC(=N)N7)NC6=O)cc5)C(O)C4O)C(O)C3O)ccc2c1 (stereo not shown) [Example 230a]	1 to 2 µg/mL
CC(C)CC(=O)OC1C(OC2C(CO)OC(Oc3ccc(CC4NC(=O)C(C(C)c5ccccc5)NC(=O)CNC(=O)C(CO)NC(=O)C(CC5CNC(=N)N5C5OC(CO)C(O)C(O)C5O)NC(=O)C(CC5CNC(=N)N5)NC4=O)cc3)C(O)C2O)OC(CO)C(O)C1O (stereo not shown) [Example 277b]	>64 µg/mL
